# System: K-562 leukemia
# TEST: NCI tumour cell line growth inhibition, 48 h
PROPERTY LABEL: TGI

Report TGI, nothing else, for this molecule: COC(=O)C1=C(C(=O)OC)C2(C)Nc3ccccc3C2=C(c2ccccc2)C1 (centres undefined) 47.8 µM

Report TGI, nothing else, for this molecule: O=c1oc2ccc(Br)cc2c(=O)n1-c1ccc(I)cc1F > 100 µM

Report TGI, nothing else, for this molecule: O=C1C=CC(=O)c2c1ccc1c3ccccc3n(-c3ccccc3[N+](=O)[O-])c21 > 100 µM

Report TGI, nothing else, for this molecule: COc1cc([C@@H]2C[C@H]2c2cc(SC)n[nH]2)cc(OC)c1OC > 100 µM

Report TGI, nothing else, for this molecule: CS(=O)(=O)CC(=O)c1ccccc1 > 100 µM

Report TGI, nothing else, for this molecule: COc1cc2c(cc1OCCCCOc1cc3c(cc1OC)C(=O)N1CCC[C@H]1C(=O)N3)N=C[C@@H]1CCCN1C2=O 6.88 µM

Report TGI, nothing else, for this molecule: Clc1ccc(OCc2nnc3n2N=C(c2ccc(Cl)cc2Cl)CS3)cc1 > 100 µM

Report TGI, nothing else, for this molecule: CCOc1cccc(-c2nc(N)nc(Nc3ccccc3SSc3ccccc3Nc3nc(N)nc(-c4cccc(OCC)c4)n3)n2)c1 > 100 µM

Report TGI, nothing else, for this molecule: C=C[C@]1(C)CCC2=C(CCC3C2(C)CCC[C@@]3(C)COC(C)=O)C1 (some centres undefined) 33.5 µM

Report TGI, nothing else, for this molecule: COc1cc2c(cc1OC)C(=O)/C(=C/c1cc(OC)c(OC)c(OC)c1)C2 > 100 µM

Report TGI, nothing else, for this molecule: Cc1cc(S(=O)(=O)/N=C(/[N-]S(=O)(=O)c2ccc(Cl)cc2)[n+]2ccc(N(C)C)cc2)c(SCC(=O)O)cc1Cl > 100 µM

Report TGI, nothing else, for this molecule: COC1(O)c2cccc(Cl)c2C(=O)N1C1(C(N)=O)CCCCC1 (centres undefined) > 100 µM

Report TGI, nothing else, for this molecule: Cn1c(=O)sc2cc(C(=S)N3CCC(Cc4ccccc4)CC3)ccc21 > 100 µM

Report TGI, nothing else, for this molecule: COc1ccc2[nH]c3c(C)c4ccnc(NCCCN(C)CCCNc5ccc6ncn7c8ccccc8c(=O)c5c67)c4c(C)c3c2c1 4.25 µM

Report TGI, nothing else, for this molecule: O=c1c2cc(Cl)cc(Cl)c2oc2nc3n(c(=O)c12)CCCS3 > 100 µM

Report TGI, nothing else, for this molecule: CCN1Cc2nc3sc(C)c(C)c3c(=O)n2C=C1C 17.8 µM

Report TGI, nothing else, for this molecule: NCC1OC(OC2C(CO)OC(OC3C(O)C(N)CC(N)C3OC3OC(CO)C(O)CC3N)C2O)C(N)C(O)C1OC1OC(CO)C(O)C(O)C1O (centres undefined) > 50 µg/mL

Report TGI, nothing else, for this molecule: Cc1nnc(N)nc1/C=C/c1c(O)ccc2ccccc12 > 100 µM

Report TGI, nothing else, for this molecule: CC(=O)NC1C(OCc2ccccc2)OC(COC(=O)CCCCCCCCCCNc2ccc([N+](=O)[O-])c3[nH]c4ccccc4c(=O)c23)C(O)C1OC(C)C(=O)NC(C)C(=O)NC(CCC(N)=O)C(=O)OCc1ccccc1 (centres undefined) > 100 µM
